target: human recombinant CBL-b (human Biotin CBL-b recombinant protein a.a. 39-426) (Homo sapiens, UniProt Q13191); construct: human Biotin CBL-b recombinant protein a.a; 39-426; Biotin (biotinylated); assay: Biochemical assay for CBL-b inhibition (ligand displacement TR-FRET); conditions: 50 nM CBL-b, 0.3 μM Bodipy FL-Probe, read-out: IC50 (CBL-b inhibition, group)
Sequence (Q13191 39-426): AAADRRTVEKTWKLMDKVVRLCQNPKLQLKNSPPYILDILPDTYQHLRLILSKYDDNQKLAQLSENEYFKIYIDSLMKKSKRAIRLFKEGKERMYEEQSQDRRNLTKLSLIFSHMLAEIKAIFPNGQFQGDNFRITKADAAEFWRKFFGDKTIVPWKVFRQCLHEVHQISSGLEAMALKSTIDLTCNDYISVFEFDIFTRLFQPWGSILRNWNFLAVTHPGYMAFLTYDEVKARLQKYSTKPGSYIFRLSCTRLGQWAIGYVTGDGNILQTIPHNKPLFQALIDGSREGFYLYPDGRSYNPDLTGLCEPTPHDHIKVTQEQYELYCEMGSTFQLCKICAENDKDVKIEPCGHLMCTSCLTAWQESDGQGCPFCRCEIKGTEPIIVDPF
pIC50: −log10 of the molar value.
measured-parameter: pIC50

molecule	pIC50
Cn1cnnc1CC1(c2ccc3c(c2)C(=O)N(c2cc(CN4CCCC(C#N)C4)cc(C(F)(F)F)n2)C3)COC1 (centres unmarked)	6.52 to 7.10
Cn1cnnc1-c1cc(Cl)ccc1-c1ccc2c(c1)C(=O)N(c1cc(CNC[C@@H]3CCCO3)cc(Cl)n1)C2 (single isomer, unassigned)	> 7.10
Cc1cc(CNCC2CC2)cc(N2Cc3ccc(-c4cccnc4-c4nncn4C)cc3C2=O)n1	5.30 to 6.52
Cn1cnnc1C[C@]1(c2ccc3c(c2)C(=O)N(c2cc(CNCC4CC4)cc(Cl)n2)C3)C[C@H](C#N)C1 (single isomer, unassigned)	> 7.10
CC(NC(C)(C)C1CC1)c1cc(Cl)nc(N2Cc3ccc(C4(Cc5nncn5C)COC4)cc3C2=O)c1 (centres unmarked)	> 7.10
CCN1CCc2c(cc(N3Cc4ccc(C5(Cc6nncn6C)COC5)cc4C3=O)cc2C(F)(F)F)C1	5.30 to 6.52
Cc1nccn1Cc1cc(N2Cc3ccc(C4(Cc5nncn5C)COC4)cc3C2=O)nc(C(F)(F)F)c1	5.30 to 6.52
Cc1cc(CNCC2CC2)cc(N2Cc3ccc(-c4ccc(Cl)cc4-c4nncn4C)cc3C2=O)n1	> 7.10
Cn1cnnc1CC1(c2ccc3c(c2)C(=O)N(c2cc(CNC4CCCC4)cc(Cl)n2)C3)COC1	> 7.10
Cn1cnnc1CC1(c2ccc3c(c2)C(=O)N(c2cc(CNC4(C)CCC4)cc(C(F)(F)F)n2)C3)COC1	5.30 to 6.52

Hi team, please reply with pIC50 for each item in this list.
1. Cn1cnnc1CC1(c2ccc3c(c2)C(=O)N(c2cc(CNCc4ccccn4)cc(Cl)n2)C3)COC1
2. C[C@H]1C[C@H](C)CN(Cc2cc(N3Cc4ccc(C5(Cc6nncn6C)COC5)cc4C3=O)nc(C(F)(F)F)c2)C1
3. Cc1cc(C(C)c2cnn(C)c2)cc(N2Cc3ccc(-c4ccc(F)cc4-c4nncn4C)cc3C2=O)n1 (centres unmarked)
4. C[C@@H]1C[C@H](C)CN(Cc2cc(N3Cc4ccc(C5(Cc6nncn6C)COC5)cc4C3=O)cc(C(F)(F)F)c2)C1

### Response
["6.52 to 7.10", "> 7.10", "5.30 to 6.52", "6.52 to 7.10"]
